# target desc: human TRPML1 (Homo sapiens, UniProt Q9GZU1)
# Sequence (Q9GZU1 whole entry L15A/L16A/L577A/L578A, form open): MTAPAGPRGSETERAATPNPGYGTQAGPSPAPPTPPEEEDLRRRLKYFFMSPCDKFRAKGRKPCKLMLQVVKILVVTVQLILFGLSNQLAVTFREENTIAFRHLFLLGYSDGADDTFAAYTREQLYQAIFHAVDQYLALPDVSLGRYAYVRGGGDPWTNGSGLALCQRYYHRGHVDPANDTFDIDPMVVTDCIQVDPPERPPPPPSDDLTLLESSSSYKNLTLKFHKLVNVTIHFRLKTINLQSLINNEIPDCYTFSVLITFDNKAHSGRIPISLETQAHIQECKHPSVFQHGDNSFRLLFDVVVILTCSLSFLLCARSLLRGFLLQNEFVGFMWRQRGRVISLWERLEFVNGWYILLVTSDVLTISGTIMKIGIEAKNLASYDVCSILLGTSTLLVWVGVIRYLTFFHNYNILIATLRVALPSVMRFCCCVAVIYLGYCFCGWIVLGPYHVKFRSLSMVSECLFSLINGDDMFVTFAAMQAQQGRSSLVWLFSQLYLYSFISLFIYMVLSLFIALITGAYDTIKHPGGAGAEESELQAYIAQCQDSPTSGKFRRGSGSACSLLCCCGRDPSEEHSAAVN
# test details: Fluorescent TRPML1 assay (Fluo4-AM calcium fluorescence, HEK-293 Trex cells)
# Format: cell-based
# experimental parameters: Table 3, compounds 201-283
# Description: HEK-293 Trex cells were stably transfected with a construct consisting of the human coding sequence for TRPML1 cloned into the tet-inducible plasmid pCDNA5 T/O. Mutations were introduced into the TRPML1 sequence to facilitate expression on the cell surface (Silvia Vergarajauregui, Rosa Puertollano Traffic. 2006 March; 7 (3): 337-353). […] The Trypsin-EDTA is diluted with growth media, and cells are counted. […] EC50 values were calculated using a non-linear regression of Prism. […]
quantity kind: EC50

Consider the worked cases shown below.
{"molecule": "C[C@@H]1CN(c2ncnc3c2c(C2CCC2)cn3-c2cc(F)cc(F)c2)[C@@H](C)CN1C(=O)CC(C)(C)C(F)(F)F", "quantity kind": "EC50", "reported": "500 to 2000 nM"}
{"molecule": "C[C@H]1CN(C(=O)C2(F)CC2)CCN1c1ncnc2c1c(N1CCCC1)cn2-c1cccc(Cl)c1", "quantity kind": "EC50", "reported": "< 100 nM"}
{"molecule": "C[C@H]1CN(C(=O)[C@H](F)C(C)(C)C)CCN1c1ncnc2c1c(C1CC1)cn2-c1cc(C#N)ccn1 (single isomer, unassigned)", "quantity kind": "EC50", "reported": "< 100 nM"}
{"molecule": "C[C@@H]1CN(c2ncnc3c2c(C2CC2)cn3-c2cccc(F)c2)[C@@H](C)CN1C(=O)C(C)(C)C", "quantity kind": "EC50", "reported": "< 100 nM"}
{"molecule": "C[C@@H]1CN(c2ncnc3c2c(-c2ccccc2F)cn3-c2cc(F)ccn2)[C@@H](C)CN1C(=O)C1(F)CC1", "quantity kind": "EC50", "reported": "< 100 nM"}
{"molecule": "C[C@@H]1CN(c2ncnc3c2c(C2CCC2)cn3-c2cc(C#N)ccn2)[C@@H](C)CN1C(=O)C1(F)CC1", "quantity kind": "EC50", "reported": "< 100 nM"}

Moving on to another molecule below.
EC50 reported for this molecule COC(C)(C)C(=O)N1CCN(c2ncnc3c2c(C2CC2)cn3-c2cc(C#N)ccn2)C[C@H]1C : < 100 nM

* * *

We begin with a simple list: items and their reported EC50.
# target desc: TRPML2 (Homo sapiens, UniProt Q8IZK6)
# Construct: expressed in transfected cells
# Sequence (Q8IZK6 whole entry): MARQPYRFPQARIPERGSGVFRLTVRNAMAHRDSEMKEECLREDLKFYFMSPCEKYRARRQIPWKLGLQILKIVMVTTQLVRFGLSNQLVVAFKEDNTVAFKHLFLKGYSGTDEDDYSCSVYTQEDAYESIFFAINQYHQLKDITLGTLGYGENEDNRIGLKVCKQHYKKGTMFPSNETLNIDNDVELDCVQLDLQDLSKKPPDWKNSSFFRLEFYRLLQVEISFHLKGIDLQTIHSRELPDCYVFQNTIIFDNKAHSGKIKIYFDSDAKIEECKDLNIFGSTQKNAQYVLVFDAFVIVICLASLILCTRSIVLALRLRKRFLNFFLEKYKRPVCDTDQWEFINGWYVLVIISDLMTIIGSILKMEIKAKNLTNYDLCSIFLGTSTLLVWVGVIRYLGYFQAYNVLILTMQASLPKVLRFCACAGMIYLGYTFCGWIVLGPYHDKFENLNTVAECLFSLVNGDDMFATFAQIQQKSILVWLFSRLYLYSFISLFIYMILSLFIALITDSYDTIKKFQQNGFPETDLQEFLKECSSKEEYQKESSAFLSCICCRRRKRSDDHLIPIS
# test details: Fluorescent TRPML2 assay (as for TRPML1)
# Type: cell-based
# experimental parameters: Table 3, compounds 201-283

{"molecule": "COC(C)(C)C(=O)N1C[C@H](C)N(c2ncnc3c2c(C(F)(F)F)cn3-c2cccc(F)c2)C[C@H]1C [Compound 223]", "target desc": "TRPML2 (Homo sapiens, UniProt Q8IZK6)", "EC50": "> 2000 nM"}
{"molecule": "COC(C)(C)C(=O)N1CCN(c2ncnc3c2c(-c2ccccc2F)cn3-c2cc(C#N)ccn2)[C@@H](C)C1 [Compound 242]", "target desc": "TRPML2 (Homo sapiens, UniProt Q8IZK6)", "EC50": "100 to 500 nM"}

Lab note: molecule C[C@@H]1CN(c2ncnc3c2c(N2CCC2)cn3-c2cc(C#N)ccn2)CCN1C(=O)C(C)(C)C [Compound 271] tested on TRPML2 (Homo sapiens, UniProt Q8IZK6); recorded EC50 was < 100 nM
